# System: Rattus norvegicus
# experimental_protocol: Inhibition of MetAP2 level in Sprague-Dawley rat lung assessed as free enzyme level at 0.3 mg/kg, po by ELISA
# Type: functional, organism-based
# Set-up: dose 0.3 mg/kg
Active and inactive are the calls of the source. No cut-off for these calls is given here.
Classes used: label 1 for active, label 0 for inactive

compound | class_name
CO[C@@H]1[C@H](OC(=O)N[C@@H](C(N)=O)C(C)(C)O)CC[C@]2(CO2)[C@H]1[C@@]1(C)O[C@@H]1CC=C(C)C | label 1
CO[C@@H]1[C@H](OC(=O)N[C@@H](C(N)=O)C(C)C)CC[C@]2(CO2)[C@H]1[C@@]1(C)O[C@@H]1C/C=C(\C)CO | label 0
CO[C@@H]1[C@H](OC(=O)N[C@@H](C(N)=O)C(C)C)CC[C@]2(CO2)[C@H]1[C@@]1(C)O[C@@H]1C[C@@H]1OC1(C)C | label 0
CO[C@@H]1[C@H](OC(=O)N[C@@H](C(N)=O)C(C)C)CC[C@]2(CO2)[C@H]1[C@@]1(C)O[C@@H]1C[C@H]1OC1(C)C | label 0
CO[C@@H]1[C@H](OC(=O)N[C@@H](C(N)=O)C(C)C)CC[C@]2(CO2)[C@H]1[C@@]1(C)O[C@@H]1CC=C(C)C [PPI-2458] | label 1
